Where do these numbers come from? They come from PubChem BioAssay AID1159580.

# Test Description: chemical genetic growth profiling, strain panel (AID 1159580);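 note: tested at 20 µM; growth read once vehicle control cultures reached saturation at 30 °C; 1 = growth at the plate median or of vehicle wells; lower values mean less growth of the strain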
# Assay Conditions: S. cerevisiae deletion strains, growth OD, locus YLR330W, strain CHS5, hits give low values
The whole screen tested about 5,500 compounds, of which about 2,000 (36%) were called active. Not shown: some 18% with an inconclusive outcome. Some of the results follow.
Readout Kind: normalized growth
No unit in the answer, please; the number alone is enough.

Hello, please tell me recorded normalized growth for this one: CCCCOC(=O)c1ccccc1C(=O)OCCCC
0.977

Hello, please tell me recorded normalized growth for this one: CCCCN(CCCC)CCCOC(=O)c1ccc(N)cc1
0.988

Hello, please tell me recorded normalized growth for this one: NC(N)=NS(=O)(=O)c1ccc(N)cc1
1.01

Hello, please tell me recorded normalized growth for this one: CCCCOC(=O)c1ccccc1C(=O)OCc1ccccc1
0.987

Hello, please tell me recorded normalized growth for this one: CO/N=C(\C(=O)N[C@@H]1C(=O)N2C(C(=O)O)=C(CSc3nc(=O)c(O)nn3C)CS[C@H]12)c1csc(N)n1
0.983

###

# Test Description: chemical genetic growth profiling, strain panel (AID 1159580)
# Assay Conditions: S. cerevisiae deletion strains, growth OD, locus YPL031C, strain PHO85
In all, about 5,500 compounds went through this assay and about 2,000 (36%) were called active. Another 18% or so got no clear call; they are omitted. Rule as the data show it: active = normalized growth mostly below about 0.91 (no sharp cut-off); inconclusive = no clear call, values can overlap the other calls; inactive = mostly above about 0.92. Some of the results follow.
// classify into 1.0 (active), 0.0 (inactive)

Field: example entries. Status: answers known.
Could you kindly confirm the outcome this assay logged for CC(C)(CCC(C)(C)N1C(=O)c2cccc3cccc(c23)C1=O)N1C(=O)c2cccc3cccc(c23)C1=O ?
1.0

Could you kindly confirm the outcome this assay logged for S=c1[nH]nc(Nc2ccc(I)cc2)s1 ?
1.0

Could you kindly confirm the outcome this assay logged for CCc1ccn2cc(Nc3ccccc3Cl)nc2c1 ?
0.0

Could you kindly confirm the outcome this assay logged for Cc1cccc(NC(=S)NNC(=O)CSCc2cccc3ccccc23)c1 ?
0.0

Could you kindly confirm the outcome this assay logged for O=C(Nc1ccc(OC(F)(F)F)cc1)OC1CN(C(c2ccccc2)c2ccccc2)C1 ?
0.0

Could you kindly confirm the outcome this assay logged for COC(=O)c1sccc1-c1ccc(/C=C/[N+](=O)[O-])o1 ?
1.0

More entries:
Could you kindly confirm the outcome this assay logged for Cc1onc(-c2c(Cl)cccc2Cl)c1C(=O)NC(C)(C)CC(C)(C)C ?
0.0

###

// normalized growth lookup, one value per entry
# Test Description: chemical genetic growth profiling, strain panel (AID 1159580)
# Assay Conditions: S. cerevisiae deletion strains, growth OD, locus YNL322C, strain KRE1 (second series), hits give low values
In all, about 5,500 compounds went through this assay and about 2,000 (36%) were called active. Another 18% or so got no clear call; they are omitted. Some of the results follow.

Below: 3 molecules and their reported normalized growth.
Hello, please tell me recorded normalized growth for this one: Cc1cc(NC(=O)C2=C(O)c3ccccc3S(=O)(=O)N2C)no1
0.953 (inactive)

Hello, please tell me recorded normalized growth for this one: CC(C)NCC(O)COc1cccc2ccccc12 (stereo unspecified)
1 (inactive)

Hello, please tell me recorded normalized growth for this one: CC1(C)NC(=O)N(c2ccc([N+](=O)[O-])c(C(F)(F)F)c2)C1=O
0.991 (inactive)

More entries:
Hello, please tell me recorded normalized growth for this one: Nc1ccn(C2O[C@H](CO)[C@@H](O)[C@@H]2O)c(=O)n1 (stereo partly specified)
1.01 (inactive)

Hello, please tell me recorded normalized growth for this one: CO/N=C(\C(=O)N[C@@H]1C(=O)N2C(C(=O)O)=C(COC(C)=O)CS[C@H]12)c1csc(N)n1
0.971 (inactive)

Hello, please tell me recorded normalized growth for this one: COC(=O)C[C@H]1C(C)(C)C(=O)[C@@H]2CC3=C(CC[C@]4(C)C3=CC(=O)O[C@H]4c3ccoc3)[C@@]1(C)C2=O
0.966 (inactive)

Hello, please tell me recorded normalized growth for this one: CC1(C)O[C@H]2[C@H](O)C[C@](O)(C(N)=O)C[C@H]2O1
1.01 (inactive)

###

// normalized growth lookup, one value per entry
# Test Description: chemical genetic growth profiling, strain panel (AID 1159580);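 note: tested at 20 µM; growth read once vehicle control cultures reached saturation at 30 °C; 1 = growth at the plate median or of vehicle wells; lower values mean less growth of the strain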
# Assay Conditions: S. cerevisiae deletion strains, growth OD, locus YGL086W, strain mad1, hits give low values
In all, about 5,500 compounds went through this assay and about 2,000 (36%) were called active. Roughly 18% stayed inconclusive and do not appear here. This is one part of the list.
No unit in the answer, please; the number alone is enough.

Hello, please tell me recorded normalized growth for this one: CO[C@@]1(NC(=O)CSCC#N)C(=O)N2C(C(=O)O)=C(CSc3nnnn3C)CSC21 (stereo partly drawn)
1.02

Hello, please tell me recorded normalized growth for this one: CC1(C)OC(=O)C=CC2(C)C1CC(O)C1(C)C2CCC2(C)C(c3ccoc3)OC(=O)C3OC321 (stereo not drawn)
1.01

Hello, please tell me recorded normalized growth for this one: C[N+]1(C)C2CC(OC(=O)[C@@H](CO)c3ccccc3)CC1C1OC12 (stereo partly drawn)
1

Hello, please tell me recorded normalized growth for this one: CC1(C)NC(=O)N(c2ccc([N+](=O)[O-])c(C(F)(F)F)c2)C1=O
0.992

More entries:
Hello, please tell me recorded normalized growth for this one: CC(=O)Oc1c(C)cccc1C(=O)O
1.01

Hello, please tell me recorded normalized growth for this one: O=C(C1CCCCC1)N1CC(=O)N2CCc3ccccc3C2C1 (stereo not drawn)
1.01

Hello, please tell me recorded normalized growth for this one: COC(=O)C(O)c1ccccc1 (stereo not drawn)
0.996

Hello, please tell me recorded normalized growth for this one: CC(C)NCC(O)c1cc(O)cc(O)c1 (stereo not drawn)
1.01

###

// normalized growth lookup, one value per entry
# Test Description: chemical genetic growth profiling, strain panel (AID 1159580);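 note: tested at 20 µM; growth read once vehicle control cultures reached saturation at 30 °C; 1 = growth at the plate median or of vehicle wells; lower values mean less growth of the strain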
# Assay Conditions: S. cerevisiae deletion strains, growth OD, locus YML124C, strain tub3, hits give low values
Out of some 5,500 compounds screened, about 2,000 (36%) were called active. Inconclusive results (about 18%) are left out. This is one part of the list.
No unit in the answer, please; the number alone is enough.

Hello, please tell me recorded normalized growth for this one: C=C1CCC2C(CC2(C)C)C(=O)CCC1O (stereo not drawn)
1.01

Hello, please tell me recorded normalized growth for this one: COc1cc2c(cc1OC)C1Cc3ccc(OC)c(OC)c3CN1CC2 (stereo not drawn)
0.987

Hello, please tell me recorded normalized growth for this one: CC1(C)C2CC(=O)[C@]3(C)C(CC[C@@]4(C)[C@H](c5ccoc5)OC(=O)[C@H]5O[C@]543)[C@@]2(C)C=C[C@@H]1O (stereo partly drawn)
0.995

Hello, please tell me recorded normalized growth for this one: NC(=O)c1cccc(N)c1
0.995

Hello, please tell me recorded normalized growth for this one: Cc1cccc(Nc2ccccc2C(=O)O)c1C
0.843

Hello, please tell me recorded normalized growth for this one: CO/N=C(\C(=O)N[C@@H]1C(=O)N2C(C(=O)O)=C(COC(C)=O)CS[C@H]12)c1csc(N)n1
0.993

Hello, please tell me recorded normalized growth for this one: O=C(O)c1ccccc1-c1c2cc(Br)c(=O)cc-2oc2[c]([Hg])c(O)c(Br)cc12
0.779

Hello, please tell me recorded normalized growth for this one: CC(C)C(C)/C=C/C(C)C1CCC2C3=CC=C4CC(O)CCC4(C)C3CCC21C (stereo not drawn)
1

Hello, please tell me recorded normalized growth for this one: OC(Cn1cncn1)(Cn1cncn1)c1ccc(F)cc1F
1

Hello, please tell me recorded normalized growth for this one: CCCCN1CCCCC1C(=O)Nc1c(C)cccc1C (stereo not drawn)
0.993

More entries:
Hello, please tell me recorded normalized growth for this one: CN1C(C(=O)Nc2ccccn2)=C(O)c2ccccc2S1(=O)=O
0.95

Hello, please tell me recorded normalized growth for this one: CC(=O)N[C@@H](CS)C(=O)O
1.04

Hello, please tell me recorded normalized growth for this one: OCc1ccccc1O
0.997

Hello, please tell me recorded normalized growth for this one: COC(=O)[C@@H]1OC(=O)[C@H]2O[C@@]23[C@@]1(C)CCC1[C@@]2(C)CCC(=O)C(C)(C)C2C[C@@H](OC(C)=O)[C@]13C (stereo partly drawn)
1.01

Hello, please tell me recorded normalized growth for this one: Cc1cc(-c2ccccc2)nnc1NCCN1CCOCC1
0.978

Hello, please tell me recorded normalized growth for this one: CO/N=C(\C(=O)NC1C(=O)N2C(C(=O)O)=C(COC(N)=O)CSC12)c1ccco1 (stereo not drawn)
0.0613

Hello, please tell me recorded normalized growth for this one: O=C(C1CCCCC1)N1CC(=O)N2CCc3ccccc3C2C1 (stereo not drawn)
1

Hello, please tell me recorded normalized growth for this one: CC(=O)Oc1c(C)cccc1C(=O)O
1.01

###

# Test Description: chemical genetic growth profiling, strain panel (AID 1159580);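 note: tested at 20 µM; growth read once vehicle control cultures reached saturation at 30 °C; 1 = growth at the plate median or of vehicle wells; lower values mean less growth of the strain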
# Assay Conditions: S. cerevisiae deletion strains, growth OD, locus YNL250W, strain rad50, hits give low values
In all, about 5,500 compounds went through this assay and about 2,000 (36%) were called active. Roughly 18% stayed inconclusive and do not appear here. The list shows a part of the results.
Readout Kind: normalized growth
No unit in the answer, please; the number alone is enough.

Below: 3 compounds and their reported normalized growth.
Hello, please tell me recorded normalized growth for this one: COC(=O)C(C)c1ccc(C(=O)c2cccs2)cc1 (stereo not given)
0.976

Hello, please tell me recorded normalized growth for this one: CC1C[C@H]2CC(=O)[C@H]3CCCN4CCC[C@H]2[C@]34C1 (stereo not given in full)
1.05

Hello, please tell me recorded normalized growth for this one: C=C1C(=O)O[C@@H]2C3O[C@]3(C)CC/C=C(\C)CC[C@@H]12 (stereo not given in full)
0.933

More entries:
Hello, please tell me recorded normalized growth for this one: Clc1cccc(Cl)c1NC1=NCCN1
1.02

Hello, please tell me recorded normalized growth for this one: O=c1[nH]oc2c1CCNC2
0.966
